assay: in vivo; settings: cynomolgus monkey, blood and plasma, iv
Description: Ratio of drug level in cynomolgus monkey blood to plasma administered through iv dosing by LC-MS/MS analysis
Task for the reader: assign each of the following compounds its reported blood plasma ratio.
# print the numeric value only

Can you share its blood plasma ratio? I mean this compound: O=C(c1ccccc1)c1ccc2n1CCC2C(=O)O (stereo unspecified) 0.687

Next compound: `CCO[C@@H](Cc1ccc(OCCc2ccc(OS(C)(=O)=O)cc2)cc1)C(=O)O` 0.687

Next compound: `CCCc1nc2c(C)cc(-c3nc4ccccc4n3C)cc2n1Cc1ccc(-c2ccccc2C(=O)O)cc1` 0.61

Next compound: CCCCCN(CCCOC)C(=O)[C@@H](CCC(=O)O)NC(=O)c1ccc(Cl)c(Cl)c1 [DEXLOXIGLUMIDE] 0.596

Next compound: CCOc1cc(CC(=O)N[C@@H](CC(C)C)c2ccccc2N2CCCCC2)ccc1C(=O)O [REPAGLINIDE] 0.679

Next compound: `CCCCc1nc(C)c(CC(=S)N(C)C)c(=O)n1Cc1ccc(-c2ccccc2-c2nnn[nH]2)cc1` 0.588

Origin of the recorded values: ChEMBL document CHEMBL4699523
